Origin of measurements: patent US20250034551A1

- target of assay: PTP1B (Homo sapiens, UniProt P18031)
- Sequence (P18031 1-321): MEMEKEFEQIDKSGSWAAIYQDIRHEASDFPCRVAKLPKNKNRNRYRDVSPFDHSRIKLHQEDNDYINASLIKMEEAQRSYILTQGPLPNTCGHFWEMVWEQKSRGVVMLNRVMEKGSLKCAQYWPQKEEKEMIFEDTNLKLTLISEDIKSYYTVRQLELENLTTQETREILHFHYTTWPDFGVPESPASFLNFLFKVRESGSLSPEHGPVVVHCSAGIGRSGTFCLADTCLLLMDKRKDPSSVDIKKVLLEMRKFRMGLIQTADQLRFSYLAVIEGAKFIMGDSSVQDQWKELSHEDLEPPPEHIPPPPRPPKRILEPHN
- test description: PTP1B-catalyzed hydrolysis of p-nitrophenyl phosphate (pNPP), in vitro kinetic assay
- Assay type: biochemical
- protocol conditions: PTP1B-catalyzed hydrolysis of pNPP; estimated from best-fit kinetic model at 20 mM pNPP; read-out: IC50 for PTP1B
pIC50: −log10 of the molar value.

{"chem smiles": "CC1=C[C@H]2[C@@H](CC1)[C@](C)(O)CCCC2(C)C", "pIC50": 3.55}
